Entries annotated with measured IC50
Test system: Plasmodium falciparum
method notes: Hit confirmation in dose-response curve in NF54 nanoGlo assay, at 72h
Assay type: functional, organism-based, Erythrocyte
Set-up: timepoint 72 hour
assay setup: Plasmodium falciparum, NF54, Erythrocyte, 72 h
State the answer as a number, implicitly in nM.

compound | IC50 / nM
COc1ccc([C@@H]2C=C(c3ccc(Cl)cc3)N=C3NC(NC(=O)c4ccccc4OC)=NN32)cc1 | 759
CCN(C(=O)Cn1cc(-c2ccccc2)c2ncn(CC)c(=O)c21)c1ccccc1 | 759

Problem: Could you share which IC50 value was measured for CCN1C(=O)c2ccccc2N2C(=O)CC[C@@]12C(=O)Nc1cccc(OC)c1 ?
Solution: 1000

Problem: Please answer likewise for Clc1ccc(Cn2cc(CNCCCn3ccnc3)c3ccccc32)c(Cl)c1
Solution: 741

Problem: Check COc1ccccc1CN(C(=O)c1ccc(C)cc1)c1ccc(CC(=O)NCCN2CCCCC2)cc1 too.
Solution: 3160

Problem: Could you do the same for Cc1cc(N2CCC3(CCCN3Cc3cc(C#N)n(C)c3C)CC2)c2ccccc2n1 , please?
Solution: 1950

Problem: And then N#Cc1nc2c(C#N)c(N)n(CCc3ccccc3)c2nc1C#N , what is it?
Solution: 1380

Problem: And COc1ccnc(CN2CCC[C@H](c3nc(-c4ccccc4)c[nH]3)C2)c1OC ?
Solution: 1450

Problem: Next compound up: O=C(Nc1cccc2cccnc12)c1ccccn1
Solution: 794

Problem: What about O=C(c1ccccc1)c1ccc(O)c(CN2CCCN(c3ccc(C(F)(F)F)cn3)CC2)c1O ?
Solution: 1820

Problem: Quick one: COc1ccc(-n2ncc3c(N)c4c(nc32)CCCC4=O)cc1
Solution: 6610

Problem: Request: Cc1ccc(N(Cc2cccs2)C(=O)c2cccs2)cc1Cl
Solution: 3390

Problem: Lookup CCc1ccc(CN2CCC[C@H](c3ncc[nH]3)C2)nc1
Solution: 1150

Problem: Moving on to the next compound: CCCn1ccnc1-c1cn(Cc2cc3ccccc3[nH]2)nn1
Solution: 2820

Problem: Next up: Cc1cc(N(C)CCC2CC2)nc([C@H](C)N(C)CCC2CC2)n1
Solution: 1380

Problem: Record: COc1ccc(-c2cc3ncc(C(=O)c4cc(Cl)ccc4O)cn3n2)cc1
Solution: 2290

Problem: Also check C[C@H](N)c1ccc(Nc2ncc3cc(-c4ccncc4)ccc3n2)cc1
Solution: 1100

Problem: What would you report for CCOc1cc(-c2cc(-c3ccccc3O)nc3ccc4ccccc4c23)cc(Br)c1O ?
Solution: 1620

Problem: Next up: COc1ccc(C(=O)N2c3ncnn3C(c3ccccc3)CC2c2ccc(C)cc2)cc1OC (configuration not stated)
Solution: 457

Problem: Next up: COc1ccccc1-n1c(=O)n(C2CCCC2)c(=O)c2c1ncn2Cc1ccccc1Cl
Solution: 3020

Problem: Follow-up entry: CC(=O)Nc1ccc(C)cc1S(=O)(=O)N1CC=C(c2c(C)n(Cc3ccccc3C)c3ccccc23)CC1
Solution: 1700

Problem: Again, but for COc1ccc(Cl)cc1C(=O)Nc1cc(C2CC2)nn1-c1nc(C)cc(=O)[nH]1
Solution: 1780

Problem: Field entry: Cc1ccc(-c2c[n+](-c3ccc(OC(F)F)cc3)c3n2CCCCC3)cc1
Solution: 891

Problem: What about Cc1ccc(OCCNc2cc([C@H]3C[C@H](N)C3)nc(C3CC3)n2)cc1C ?
Solution: 3310

Problem: What about this compound? Cc1nsc2ncc(C(=O)N3CCC(C)CC3)c(N3CCC(C(=O)Nc4cc(F)ccc4F)CC3)c12
Solution: 2820
